Assign Bliss excess to each entry below.
Tested on: NCI-H520 (Squamous Cell Lung Carcinoma)
ASSAY NOTES: Bliss excess, mean over the matrix (fraction); higher = more synergy

{"MOLECULE": "C[C@@H]1COCCN1c1cc(C2([S@](C)(=N)=O)CC2)nc(-c2ccnc3[nH]ccc23)n1 [AZD6738] + O=C(c1cc(Cc2n[nH]c(=O)c3ccccc23)ccc1F)N1CCN(C(=O)C2CC2)CC1 [Olaparib] (first compound max 10 µM, 7x7, partner max 10 µM)", "Bliss excess": 0.044}

# query: Bliss excess | item Cc1c2c(nn1C)CSCc1cc(n(C)n1)CSc1cc(c3ccccc3c1)OCCCc1c(C(=O)O)n(C)c3c-2c(Cl)ccc13 [AZD5991] + CC1(C)CCC(CN2CCN(c3ccc(C(=O)NS(=O)(=O)c4ccc(NCC5CCOCC5)c([N+](=O)[O-])c4)c(Oc4cnc5[nH]ccc5c4)c3)CC2)=C(c2ccc(Cl)cc2)C1 [Venetoclax] (first compound max 1 µM, 7x7, partner max 1 µM) | system: NCI-H520 (Squamous Cell Lung Carcinoma) -0.0019

====

System: 8505C (Thyroid Gland Carcinoma)
ASSAY NOTES: Bliss excess, mean over the matrix (fraction); higher = more synergy
Assign Bliss excess to each entry below.
Give bare numbers.

{"COMPOUND": "CC1(C)CCC(CN2CCN(c3ccc(C(=O)NS(=O)(=O)c4ccc(NCC5CCOCC5)c([N+](=O)[O-])c4)c(Oc4cnc5[nH]ccc5c4)c3)CC2)=C(c2ccc(Cl)cc2)C1 [Venetoclax] + Cc1cc2ncnn2cc1Nc1ncc2c(n1)n(C1CCOCC1)c(=O)n2C [AZD7648] (first compound max 1 µM, 7x7, partner max 10 µM)", "Bliss excess": -0.0088}
{"COMPOUND": "CC1(C)CCC(CN2CCN(c3ccc(C(=O)NS(=O)(=O)c4ccc(NCC5CCOCC5)c([N+](=O)[O-])c4)c(Oc4cnc5[nH]ccc5c4)c3)CC2)=C(c2ccc(Cl)cc2)C1 [Venetoclax] + C[C@@H](Nc1cc(F)cc(F)c1)c1cc(C(=O)N(C)C)cc2c(=O)cc(N3CCOCC3)oc12 [AZD8186] (first compound max 1 µM, 7x7, partner max 3 µM)", "Bliss excess": -0.024}

Could you share which Bliss excess value was measured for CN(CCO)CC[C@H](CSc1ccccc1)Nc1ccc(S(=O)(=O)NC(=O)c2ccc(N3CCC([C@@H](O)c4ccccc4-c4ccc(Cl)cc4)CC3)cc2)cc1S(=O)(=O)C(F)(F)F [AZD4320] + CCN(CCO)CCCOc1ccc2c(Nc3cc(CC(=O)Nc4cccc(F)c4)[nH]n3)ncnc2c1 [AZD2811] (first compound max 1 µM, 7x7, partner max 1 µM) ? 0.0545

====

Tested on: NCCIT (Other Solid Carcinomas)
ASSAY NOTES: combination Emax (second highest fraction inhibited in the dose matrix, 72 h); higher = more inhibition; extreme values may be limits of the assay
Assign combination Emax to each entry below.
Give bare numbers.

// worked examples, combination Emax included
{"COMPOUND": "C[C@@H](Nc1cc(F)cc(F)c1)c1cc(C(=O)N(C)C)cc2c(=O)cc(N3CCOCC3)oc12 [AZD8186] + C1CN(CCC1(C(=O)N[C@@H](CCO)C2=CC=C(C=C2)Cl)N)C3=NC=NC4=C3C=CN4 [AZD5363] (first compound max 10 µM, 7x7, partner max 10 µM)", "combination Emax": 0.499}
{"COMPOUND": "Cc1cc2ncnn2cc1Nc1ncc2c(n1)n(C1CCOCC1)c(=O)n2C [AZD7648] + CN(C)CCCOc1ccc(-c2ccc3ncc4c(c3c2)n(C2CCOCC2)c(=O)n4C)cn1 [AZD0156] (first compound max 10 µM, 7x7, partner max 1 µM)", "combination Emax": 0.282}
{"COMPOUND": "Cc1c2c(nn1C)CSCc1cc(n(C)n1)CSc1cc(c3ccccc3c1)OCCCc1c(C(=O)O)n(C)c3c-2c(Cl)ccc13 [AZD5991] + CC1(C)CCC(CN2CCN(c3ccc(C(=O)NS(=O)(=O)c4ccc(NCC5CCOCC5)c([N+](=O)[O-])c4)c(Oc4cnc5[nH]ccc5c4)c3)CC2)=C(c2ccc(Cl)cc2)C1 [Venetoclax] (first compound max 1 µM, 7x7, partner max 1 µM)", "combination Emax": 0.692}
{"COMPOUND": "CCN(CCO)CCCOc1ccc2c(Nc3cc(CC(=O)Nc4cccc(F)c4)[nH]n3)ncnc2c1 [AZD2811] + C[C@@H]1COCCN1C2=NC(=NC(=C2)C3(CC3)[S@](=N)(=O)C)C4=C5C=CNC5=NC=C4 [AZD6738] (first compound max 1 µM, 7x7, partner max 10 µM)", "combination Emax": 0.561}
{"COMPOUND": "Cc1c2c(nn1C)CSCc1cc(n(C)n1)CSc1cc(c3ccccc3c1)OCCCc1c(C(=O)O)n(C)c3c-2c(Cl)ccc13 [AZD5991] + C[C@@H]1COCCN1C2=NC(=NC(=C2)C3(CC3)[S@](=N)(=O)C)C4=C5C=CNC5=NC=C4 [AZD6738] (first compound max 1 µM, 7x7, partner max 10 µM)", "combination Emax": 0.864}

List combination Emax for every entry below, keeping the order given.
1. O=C(c1cc(Cc2n[nH]c(=O)c3ccccc23)ccc1F)N1CCN(C(=O)C2CC2)CC1 [Olaparib] + Cc1c2c(nn1C)CSCc1cc(n(C)n1)CSc1cc(c3ccccc3c1)OCCCc1c(C(=O)O)n(C)c3c-2c(Cl)ccc13 [AZD5991] (first compound max 10 µM, 7x7, partner max 1 µM)
2. COc1cccc(OCCCN)c1-c1cc(Nc2cnc(C#N)cn2)n[nH]1 [Prexasertib] + CCc1c2c(nc3ccc(O)cc13)-c1cc3c(c(=O)n1C2)COC(=O)[C@]3(O)CC [SN-38] (first compound max 1 µM, 7x7, partner max 0.3 µM)

1: 0.527; 2: 0.85

====

Test system: M059J (Glioblastoma)
ASSAY NOTES: combination Emax (second highest fraction inhibited in the dose matrix, 72 h); higher = more inhibition; extreme values may be limits of the assay
Assign combination Emax to each entry below.
Numbers only.

// worked examples, combination Emax included
{"MOLECULE": "CC1(C)CCC(CN2CCN(c3ccc(C(=O)NS(=O)(=O)c4ccc(NCC5CCOCC5)c([N+](=O)[O-])c4)c(Oc4cnc5[nH]ccc5c4)c3)CC2)=C(c2ccc(Cl)cc2)C1 [Venetoclax] + CN(C)CCCOc1ccc(-c2ccc3ncc4c(c3c2)n(C2CCOCC2)c(=O)n4C)cn1 [AZD0156] (first compound max 1 µM, 7x7, partner max 1 µM)", "combination Emax": 0.169}
{"MOLECULE": "COc1cccc(OCCCN)c1-c1cc(Nc2cnc(C#N)cn2)n[nH]1 [Prexasertib] + C[C@@H]1COCCN1C2=NC(=NC(=C2)C3(CC3)[S@](=N)(=O)C)C4=C5C=CNC5=NC=C4 [AZD6738] (first compound max 1 µM, 7x7, partner max 10 µM)", "combination Emax": 0.686}
{"MOLECULE": "Cc1c2c(nn1C)CSCc1cc(n(C)n1)CSc1cc(c3ccccc3c1)OCCCc1c(C(=O)O)n(C)c3c-2c(Cl)ccc13 [AZD5991] + CCN(CCO)CCCOc1ccc2c(Nc3cc(CC(=O)Nc4cccc(F)c4)[nH]n3)ncnc2c1 [AZD2811] (first compound max 1 µM, 7x7, partner max 1 µM)", "combination Emax": 0.523}
{"MOLECULE": "NC1(C(=O)N[C@@H](CCO)c2ccc(Cl)cc2)CCN(c2ncnc3[nH]ccc23)CC1 [Capivasertib] + Cn1cnc2c(F)c(Nc3ccc(Br)cc3Cl)c(C(=O)NOCCO)cc21 [Selumetinib] (first compound max 10 µM, 7x7, partner max 10 µM)", "combination Emax": 0.415}

List combination Emax for every entry below, keeping the order given.
1. CC1(C)CCC(CN2CCN(c3ccc(C(=O)NS(=O)(=O)c4ccc(NCC5CCOCC5)c([N+](=O)[O-])c4)c(Oc4cnc5[nH]ccc5c4)c3)CC2)=C(c2ccc(Cl)cc2)C1 [Venetoclax] + CS(=O)(=O)CCNCc1ccc(-c2ccc3ncnc(Nc4ccc(OCc5cccc(F)c5)c(Cl)c4)c3c2)o1 [Lapatinib] (first compound max 1 µM, 7x7, partner max 10 µM)
2. Cc1c2c(nn1C)CSCc1cc(n(C)n1)CSc1cc(c3ccccc3c1)OCCCc1c(C(=O)O)n(C)c3c-2c(Cl)ccc13 [AZD5991] + CS(=O)(=O)CCNCc1ccc(-c2ccc3ncnc(Nc4ccc(OCc5cccc(F)c5)c(Cl)c4)c3c2)o1 [Lapatinib] (first compound max 1 µM, 7x7, partner max 10 µM)
3. COc1nnc2ccc(N3CCC(c4ccc(OCCN5CCN(C)C(=O)[C@H]5C)cc4)CC3)nn12 [AZD5153] + CC1(C)CCC(CN2CCN(c3ccc(C(=O)NS(=O)(=O)c4ccc(NCC5CCOCC5)c([N+](=O)[O-])c4)c(Oc4cnc5[nH]ccc5c4)c3)CC2)=C(c2ccc(Cl)cc2)C1 [Venetoclax] (first compound max 1 µM, 7x7, partner max 1 µM)
4. CN(CCO)CC[C@H](CSc1ccccc1)Nc1ccc(S(=O)(=O)NC(=O)c2ccc(N3CCC([C@@H](O)c4ccccc4-c4ccc(Cl)cc4)CC3)cc2)cc1S(=O)(=O)C(F)(F)F [AZD4320] + Cn1cnc2c(F)c(Nc3ccc(Br)cc3Cl)c(C(=O)NOCCO)cc21 [Selumetinib] (first compound max 1 µM, 7x7, partner max 3 µM)

1. 0.365
2. 0.456
3. 0.756
4. 0.3

List combination Emax for every entry below, keeping the order given.
1. Cc1c2c(nn1C)CSCc1cc(n(C)n1)CSc1cc(c3ccccc3c1)OCCCc1c(C(=O)O)n(C)c3c-2c(Cl)ccc13 [AZD5991] + CC(=O)O[C@H]1C(=O)[C@@]2(C)[C@H]([C@H](OC(=O)c3ccccc3)[C@]3(O)C[C@H](OC(=O)[C@H](O)[C@@H](NC(=O)c4ccccc4)c4ccccc4)C(C)=C1C3(C)C)[C@]1(OC(C)=O)CO[C@@H]1C[C@@H]2O [Paclitaxel] (first compound max 1 µM, 7x7, partner max 3 µM)
2. CN(CCO)CC[C@H](CSc1ccccc1)Nc1ccc(S(=O)(=O)NC(=O)c2ccc(N3CCC([C@@H](O)c4ccccc4-c4ccc(Cl)cc4)CC3)cc2)cc1S(=O)(=O)C(F)(F)F [AZD4320] + Nc1ccn([C@@H]2O[C@H](CO)[C@@H](O)C2(F)F)c(=O)n1 [Gemcitabine] (first compound max 1 µM, 7x7, partner max 0.3 µM)
3. N#Cc1cnc(Nc2cc(NC[C@H]3CNCCO3)c(C(F)(F)F)cn2)cn1 [SRA737] + Nc1ccn([C@@H]2O[C@H](CO)[C@@H](O)C2(F)F)c(=O)n1 [Gemcitabine] (first compound max 10 µM, 7x7, partner max 0.3 µM)
4. CCN(CCO)CCCOc1ccc2c(Nc3cc(CC(=O)Nc4cccc(F)c4)[nH]n3)ncnc2c1 [AZD2811] + C=CCn1c(=O)c2cnc(Nc3ccc(N4CCN(C)CC4)cc3)nc2n1-c1cccc(C(C)(C)O)n1 [AZD1775] (first compound max 1 µM, partner max 1 µM)

[0.865, 0.837, 0.794, 0.553]
